# Tested on: P. falciparum 3D7
# PROTOCOL_DETAILS: DAPI stain fluorescent high content imaging assay, P. falciparum 3D7 (confirmatory screen, Avery)
# EXPERIMENTAL_PARAMETERS: Plasmodium falciparum, 3D7, read-out: percent_inh @ 5 uM
Please provide measured inhibition of growth at 5 µM for the entries that follow.
Give bare numbers, in %.

Look over these answered cases.
COMPOUND	inhibition of growth at 5 µM (%)
COc1cc(OC)c(N(C)C(=O)c2cc3c(s2)-c2ccccc2S(=O)(=O)C3)cc1Cl [MMV006427]	100
Cc1cc(NC(=O)C2c3ccccc3C(=O)N(CC(C)C)C2c2cccs2)no1 (stereo not drawn) [MMV006429]	100
Cc1ccc(CN2CCC(C(=O)Nc3ccc(-c4cc5ccccc5[nH]4)cc3)CC2)o1 [MMV666071]	77

Field: inhibition of growth at 5 µM. Fill in for each record below.
1. Cc1[nH]c(-c2ccc(F)cc2)cc1C(=O)NC1CCN(Cc2ccccc2)CC1 [MMV019738]
2. O=C1c2ccc3c4c(ccc(c24)C(=O)N1CCCCO)C(=O)N(CCCCO)C3=O [MMV009085]
3. CCOC(=O)c1cnc2c(C)cccc2c1Nc1ccc(C(C)=O)cc1 [MMV006250]
4. Cc1nc2ccccc2c(O)c1CC=C(Cl)Cl [MMV665994]

Out:
1. 99
2. 97
3. 94
4. 89

Working through the 6 compounds below one at a time, give inhibition of growth at 5 µM for each.
1. CCN(Cc1ccccc1)C1CCN(Cc2cc(Br)ccc2O)CC1 [MMV019127]
2. O=C(NC1CCN(Cc2ccccc2)CC1)c1cc(-c2cccnc2)nc2ccc(Cl)cc12 [MMV020490]
3. CCOc1ccc(C=Cc2nc(=O)c3ccccc3o2)cc1 [MMV665940]
4. CC(C)(C)CC(C)(C)NCC(O)COc1ccc2c(c1)CCC2 (stereo not drawn) [MMV665817]
5. O=C(NC1CCCCC1)C(c1cccs1)N(CCc1ccccc1)C(=O)c1ccco1 (stereo not drawn) [MMV666106]
6. CCCc1cc(O)c2c3c(c(=O)oc2c1)CN(C)CC3 [MMV665841]

Out:
1. 97
2. 91
3. 95
4. 78
5. 90
6. 97

Take each entry in turn and give its inhibition of growth at 5 µM.
1. Oc1ccc2ccccc2c1CNc1nc2ccccc2[nH]1 [MMV011832]
2. COc1cccc(C=Cc2nc(=O)c3ccccc3o2)c1OC [MMV666693]
3. CCOc1ccc(Nc2c3ccccc3nc3ccccc23)cc1 [MMV000304]
4. CCCCCC(=O)N1c2ccccc2N=C2CC(c3ccc(OC)c(OC)c3)CC(O)=C2C1c1ccc(C(F)(F)F)cc1 (stereo not drawn) [MMV085583]
5. CC1=C(CC(=O)c2cccc([N+](=O)[O-])c2)C(=O)c2ccccc2C1=O [MMV666125]
6. Cc1cc(C)c2c(c1)OCN(Cc1ccccc1Cl)C2 [MMV006558]

Out:
1. 83
2. 96
3. 97
4. 100
5. 95
6. 98

---

# Tested on: P. falciparum 3D7
# PROTOCOL_DETAILS: DAPI stain fluorescent high content imaging assay, P. falciparum 3D7 (confirmatory screen, Avery)
# EXPERIMENTAL_PARAMETERS: Plasmodium falciparum, 3D7, read-out: EC50_nM
MEASURED_ATTRIBUTE: pEC50
Numbers only, as −log10 of the molar value.

Here are 2 molecules together with their reported answers.
MOLECULE	SYSTEM_UNDER_TEST	pEC50
Cc1cc(NC(=O)c2cccc(C(F)(F)F)c2)n(-c2nc(-c3ccc4c(c3)OCO4)cs2)n1 [MMV396681]	P. falciparum 3D7	6.02
Cn1c(=O)c2cc(C(=O)NCCCN3CCCCCC3)sc2c2ccccc21 [MMV019313]	P. falciparum 3D7	6.17

Okay, now this molecule:
In: What value of pEC50 has been recorded for this entry: CC(Oc1ccc(NC(=O)c2cccs2)cc1)C(=O)c1ccc(Cl)cc1 (stereo not drawn) [MMV665886]
Out: 5.99

---

# Tested on: P. falciparum 3D7
# PROTOCOL_DETAILS: DAPI stain fluorescent high content imaging assay, P. falciparum 3D7 (confirmatory screen, Avery)
# EXPERIMENTAL_PARAMETERS: Plasmodium falciparum, 3D7, read-out: EC50_nM
Hi there, I'd appreciate the recorded EC50 for every entry that follows.
One number for each entry, in nM.

# example entries with known answers
MOLECULE	MEASURED_RESULT
Cc1cc(Nc2cccc(F)c2)nc(NCc2ccccc2)n1	662
Nc1nc(Nc2cccc(F)c2)nc2ccccc12	1000

For the next question, use this molecule.
In: Sample COC(=O)c1ccc(C2C3=C(O)CC(c4ccc(F)cc4)CC3=Nc3ccccc3N2C(=O)c2ccccc2)cc1 (stereo not drawn) — what was its EC50?
Out: 326

---

Exercise: state measured inhibition of growth at 5 µM for each of the compounds provided.
# Tested on: P. falciparum 3D7
# PROTOCOL_DETAILS: DAPI stain fluorescent high content imaging assay, P. falciparum 3D7 (confirmatory screen, Avery)
# EXPERIMENTAL_PARAMETERS: Plasmodium falciparum, 3D7, read-out: percent_inh @ 5 uM
Answers are plain numbers, in %.

Solved entries:
COMPOUND	RESULT_UNITS	MEASURED_RESULT
CCOC(=O)c1cn(CC)c2cc(N(C)CCc3ccc(OC)c(OC)c3)c(F)cc2c1=O	%	99
Cc1ccc(C(=O)c2oc3ccc4c(C)cc(=O)oc4c3c2C)cc1	%	96
Cc1ccc(N2C(=O)C3C(C2=O)C2(c4ccccc4)C(=O)C3(c3ccccc3)C(c3ccccc3)=C2c2ccccc2)cc1 (stereo not drawn)	%	98

Need inhibition of growth at 5 µM for each of these compounds.
1. c1ccc2cc3c(Nc4ccc(N5CCOCC5)cc4)ccnc3cc2c1
2. O=C(CCc1ccco1)NC1CCN(CC2(c3ccc(Cl)cc3)CCC2)CC1
3. CCOc1cc2c(cc1OCC)C(c1cc(OC)c(O)cc1Cl)NCC2 (stereo not drawn)
4. Cc1cc(C)c2nc(N3CCC(C(=O)NCCCN4CCC(N5CCCCC5)CC4)CC3)sc2c1
5. COc1ccc(C(=O)C(CCC(CNC(C)(C)C)C(=O)c2ccc(OC)cc2)CNC(C)(C)C)cc1 (stereo not drawn)
6. Cc1sc2ncnc(Sc3nc4ccccc4[nH]3)c2c1C

Out:
[97, 96, 98, 98, 85, 100]

---

# Test system: P. falciparum 3D7
# PROTOCOL_DETAILS: DAPI stain fluorescent high content imaging assay, P. falciparum 3D7 (confirmatory screen, Avery)
# EXPERIMENTAL_PARAMETERS: Plasmodium falciparum, 3D7, read-out: percent_inh @ 5 uM
MEASURED_ATTRIBUTE: inhibition of growth at 5 µM (%)
One number for each entry, in %.

Recorded inhibition of growth at 5 µM, per entry:
COMPOUND	MEASURED_ATTRIBUTE	RESULT_UNITS	MEASURED_RESULT
CCCCCCc1cc2cc(-c3nc4ccccc4[nH]3)c(=Nc3ccccc3C)oc2cc1O [MMV666597]	inhibition of growth at 5 µM	%	96
O=C(Nc1ccccc1O)c1ccc(-c2ccc(Cl)cc2Cl)o1 [MMV665948]	inhibition of growth at 5 µM	%	97
CC(=O)c1sc(NC(=O)Nc2ccc(C)cc2C)nc1C [MMV665894]	inhibition of growth at 5 µM	%	64
CC(=O)Nc1nnc(SCc2c(C)cc(C(C)(C)C)cc2C)s1 [MMV020700]	inhibition of growth at 5 µM	%	96
CC(O)(c1ccc(Cl)cc1)C(CN1CCCCC1)c1ccccc1 (centres unmarked) [MMV000620]	inhibition of growth at 5 µM	%	94
Cc1ccnc(NC(c2cccc(OCc3ccccc3)c2)c2ccc3cccnc3c2O)c1 (centres unmarked) [MMV000720]	inhibition of growth at 5 µM	%	97
CC1CCN(Cc2ccc(NC(=O)c3cc4ccc5cccnc5c4[nH]3)cc2)CC1 [MMV020549]	inhibition of growth at 5 µM	%	97
Cc1ccc(C2CC(C(F)(F)F)n3nc(C(=O)N4CCN(C(c5ccccc5)c5ccccc5)CC4)cc3N2)cc1 (centres unmarked) [MMV000699]	inhibition of growth at 5 µM	%	98

// for each compound in input: emit inhibition of growth at 5 µM
1. O=C(Nc1ccc(Cl)cc1C(=O)Nc1ccncc1)c1ccc(Cl)cc1Cl [MMV666057]
2. c1ccc(Cn2c(N=Nc3c(Nc4ccccc4)ccc4ccccc34)nc3ccccc32)cc1 [MMV666023]
3. O=C(Nc1ccc(-c2nc3ccccc3[nH]2)cc1)c1ccc(Cl)c(Cl)c1 [MMV665840]
4. CN1C=C(c2ccc3ccccc3n2)C(c2c[nH]c3ccccc23)c2ccccc21 (centres unmarked) [MMV008160]
5. O=C(Nc1cccc(C2=NCCN2)c1)Nc1cccc(C2=NCCN2)c1 [MMV665810]
6. COc1ccc(Br)cc1C1Nc2ccc3ccccc3c2C2=C1C(=O)CC(c1ccccc1)C2 (centres unmarked) [MMV020885]

Out:
[94, 96, 97, 95, 83, 95]
